# Tested on: OVCAR-4 ovarian
# assay summary: NCI-60 one-dose screen, 48 h (100 = growth as untreated, 0 = no growth, -100 = all killed)
# measurement setup: 10 µM
Compounds without any hit were thinned out: in the full panel of roughly 83,000, 20% have a hit.
growth class ranges: group A = under 40%, group B = from 40% up to 90%, group C = 90% and over

1. COc1ccc(C(=O)/C=C/c2cc(-c3cc(OC)c(OC)c(OC)c3)n[nH]2)cc1 :: group B
2. Cc1cc(Nc2ccc(Cl)cc2)nc(NCCCNc2ccnc3cc(Cl)ccc23)n1 :: group A
3. Nc1nc(N)c2c(ccc3nccc32)[nH]1 :: group B
4. COc1ccc(-c2nn(-c3cccc(NC(=O)c4ccc5c(c4)OCCO5)c3)cc2-c2ccncc2)cc1Cl :: group B
5. O=C1/C(=C\c2ccc(Cl)cc2)CN(C(=O)c2ccccc2)C/C1=C\c1ccc(Cl)cc1 :: group A
6. S=C1SCC(c2ccccc2)S1 (stereo unspecified) :: group C
7. Nc1ccc2c(c1)C1(CCC2)NC(=O)NC1=O (stereo unspecified) :: group C
8. CCN(CC)CCOc1nc2ccccc2c2c1-c1ccc(OC)cc1C2=O :: group A
9. CCN1CCC2(CC1)OC(c1ccccc1)C(c1ccccc1)O2 (stereo unspecified) :: group C
10. Cc1cccc2c1O/C(=C\c1ccc([N+](=O)[O-])o1)C2=O :: group A
